protocol summary: Observed AUC0-12h at steady state (linear-up-log-down method)
Type: in vivo
details: human, 46 patients, steady state (day 4), intravenous, plasma, LC-MS/MS, mean ± spread
Positions of bridges follow the written chain, without caps; N, C: chain ends. Non-standard residues stand in square brackets, D forms with d. Residues, ends and D or L forms follow the SMILES beside them. *: point of attachment. X1 = CC[C@H](C)CCCCC(=O)*; Dab = NCC[C@H](N)C(=O)O

{"columns": ["compound", "AUC(0-t)"],
 "data": [
  ["CC[C@H](C)CCCCC(=O)N[C@@H](CCN)C(=O)N[C@H](C(=O)N[C@@H](CCN)C(=O)N[C@H]1CCNC(=O)[C@H]([C@@H](C)O)NC(=O)[C@H](CCN)NC(=O)[C@H](CCN)NC(=O)[C@H](CC(C)C)NC(=O)[C@@H](Cc2ccccc2)NC(=O)[C@H](CCN)NC1=O)[C@@H](C)O [polymyxin B, Polymyxin B] (X1-[Dab]T[Dab][Dab][Dab][dF]L[Dab][Dab]T; lactam 4-C)", "43600 ng·h/mL"]
]}
